Biological target: RSV F on RSV subtype B virus (mKate-RSV B 18537) (respiratory syncytial virus B 18537, UniProt P13843 26-574)
Sequence (P13843 26-574): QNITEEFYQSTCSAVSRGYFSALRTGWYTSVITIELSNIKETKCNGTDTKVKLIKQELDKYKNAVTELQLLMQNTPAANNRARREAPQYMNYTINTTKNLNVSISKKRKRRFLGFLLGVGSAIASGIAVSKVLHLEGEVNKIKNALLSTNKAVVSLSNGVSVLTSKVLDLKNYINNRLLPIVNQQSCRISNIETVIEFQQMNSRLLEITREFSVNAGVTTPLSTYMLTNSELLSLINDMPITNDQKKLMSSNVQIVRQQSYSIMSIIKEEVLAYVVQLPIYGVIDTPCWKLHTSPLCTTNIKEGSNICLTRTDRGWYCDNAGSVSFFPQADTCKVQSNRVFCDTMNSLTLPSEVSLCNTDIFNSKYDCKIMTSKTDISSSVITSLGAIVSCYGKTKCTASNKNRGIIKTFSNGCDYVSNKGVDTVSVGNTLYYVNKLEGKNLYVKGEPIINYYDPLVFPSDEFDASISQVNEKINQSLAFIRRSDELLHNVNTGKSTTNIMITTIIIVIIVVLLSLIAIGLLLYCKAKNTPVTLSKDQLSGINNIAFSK
Assay: cell-based or functional assay
Assay endpoint: Neut IC50 subtype B (µg/mL)
Reply with just the number (in µg/mL).

Examples from the recorded data:
>  <Binder>
ADI-14353 (antibody, V domains shown, full-length IgG; also called Ab 21) VH: QVQLVQSGAEVKKPGSSVKVSCKASGGTFSSYTISWVRQAPGQGLEWMGRIKPIIGIANNAQRFKGRVTITAEKSTGTAYMELSSLTSEDTAVYYCARGGYDYYGMDVWGQGTTVTVSS VL: QSALTQPASVSGSPGQSITISCTGTSSDVGGYNYVSWHQQHPGKAPKLLIYDVSNRPSGVSNRFSGSKSGNTASLSISGLQAEDEADYYCSSFTSTSTPYVFGTGTQLTVL

>  <Readout value>
14.6

$$$$
>  <Binder>
ADI-14391 (antibody, V domains shown, full-length IgG; also called Ab 58) VH: QVQLVESGGGLVQPGGSLRLSCAAAGFSFSNYAMSWVRQAPGKGLEWVAVISGNAGSTYYAESVKGRFTISRDNSKNTLHLQMNSLRGEDTAVYYCAKPPGIAVAGEYYWYFDLWGRGTLVTVSS VL: QVQLMQPPSVSVSPGQTARITCSGDALPRENAYWYQQKSGQAPVLVIYEDSKRPSGIPERFSGSSSGTMATLTITGAQVEDEADYYCYSTDTSAYHWVFGGGTKLTVL

>  <Readout value>
22.2

$$$$

Now, please, on to the next binder.
The binder ADI-24805 (antibody, V domains shown, full-length IgG; also called Ab 370) VH: QVQLVQSGGGLVKPGGSLRLSCAASGFTFSSYSMNWVRQAPGKGLEWVSSISSSSSYIYYADSVKGRFTISRDNAKNSLYLQMNSLRAEDTAVYYCAREGYSSSSGYYYYMDVWGKGTTVTVSS VL: QSVLTQPPSVSGAPGQRVTISCTGSSSNIGAGYDVHWYQQLPGTAPKLLIYGNSNRPSGVPDRFSGSKSGTSASLAITGLQAEDEADYYCQSYDSSLSGSVFGTGTKVTVL showed Neut IC50 subtype B equal to 0.71
